Target: Recombinant human HDAC6 (Homo sapiens)
Construct: full length, MW=159 kDa; GST (N); host or cells: Sf9 insect cells (baculovirus)
Sequence (Q9UBN7 whole entry): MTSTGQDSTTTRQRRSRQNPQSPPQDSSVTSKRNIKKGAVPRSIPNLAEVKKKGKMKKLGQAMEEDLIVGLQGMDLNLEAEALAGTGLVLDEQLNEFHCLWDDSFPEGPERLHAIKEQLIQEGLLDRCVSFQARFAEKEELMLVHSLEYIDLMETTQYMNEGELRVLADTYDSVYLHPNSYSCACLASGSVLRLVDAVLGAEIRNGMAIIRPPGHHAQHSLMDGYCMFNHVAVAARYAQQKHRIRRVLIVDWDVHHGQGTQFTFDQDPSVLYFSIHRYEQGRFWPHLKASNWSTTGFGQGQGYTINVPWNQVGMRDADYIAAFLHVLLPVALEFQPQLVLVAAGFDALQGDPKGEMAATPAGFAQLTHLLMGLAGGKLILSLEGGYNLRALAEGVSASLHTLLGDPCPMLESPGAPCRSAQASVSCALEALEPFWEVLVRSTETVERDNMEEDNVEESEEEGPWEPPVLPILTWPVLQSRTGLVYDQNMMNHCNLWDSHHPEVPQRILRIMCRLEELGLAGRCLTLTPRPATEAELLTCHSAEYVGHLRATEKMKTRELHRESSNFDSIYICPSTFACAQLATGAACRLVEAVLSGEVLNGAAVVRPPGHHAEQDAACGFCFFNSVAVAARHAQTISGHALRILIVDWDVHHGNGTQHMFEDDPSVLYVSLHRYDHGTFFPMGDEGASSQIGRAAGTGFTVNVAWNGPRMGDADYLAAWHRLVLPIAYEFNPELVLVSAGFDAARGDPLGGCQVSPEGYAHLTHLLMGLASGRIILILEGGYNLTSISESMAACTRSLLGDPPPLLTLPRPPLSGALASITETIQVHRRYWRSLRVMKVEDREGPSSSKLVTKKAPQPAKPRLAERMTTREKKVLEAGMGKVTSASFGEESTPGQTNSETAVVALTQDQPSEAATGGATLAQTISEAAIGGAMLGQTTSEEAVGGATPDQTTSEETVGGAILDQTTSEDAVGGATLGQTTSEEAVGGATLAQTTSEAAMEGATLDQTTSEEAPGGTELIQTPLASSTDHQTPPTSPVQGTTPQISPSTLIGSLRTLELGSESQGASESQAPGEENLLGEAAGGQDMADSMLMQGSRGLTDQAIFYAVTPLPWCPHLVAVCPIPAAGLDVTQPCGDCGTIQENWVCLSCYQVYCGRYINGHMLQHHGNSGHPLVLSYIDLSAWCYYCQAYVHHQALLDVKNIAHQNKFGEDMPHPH
Assay: HDAC6 biochemical assay, AMC-labeled peptide substrate
Details: HDAC6; read-out: HDAC Isoform IC50 (nM) 6
Examples of compounds with documented IC50 follow.

>>> result("O=C(c1cnnc(N(Cc2ccc(-c3noc(C(F)(F)F)n3)s2)c2cnccn2)c1)N1C[C@@H]2C[C@H]1CO2")
"≤ 500 nM"
>>> result("FC(F)(F)c1cnnc(N(Cc2ccc(-c3noc(C(F)(F)F)n3)s2)c2ccncn2)c1")
"≤ 1000 nM"
>>> result("FC(F)(F)c1nc(-c2ccc(CN(c3cnccn3)c3cncnc3C(F)(F)F)s2)no1")
"≤ 10000 nM"

Record for `O=C(c1cnnc(N(Cc2ccc(-c3noc(C(F)(F)F)n3)s2)c2cnccn2)c1)N1CC(C(F)(F)F)C1` under target or system Recombinant human HDAC6 (Homo sapiens): IC50 reported as ≤ 500 nM

Record for `O=C(O)c1cnnc(N(Cc2ccc(-c3noc(C(F)(F)F)n3)s2)c2cnccn2)c1` under target or system Recombinant human HDAC6 (Homo sapiens): IC50 reported as ≤ 500 nM

Record for `O=C(O)c1cnnc(N(Cc2ccc(-c3noc(C(F)(F)F)n3)s2)c2cc(C(F)(F)F)cnn2)c1` under target or system Recombinant human HDAC6 (Homo sapiens): IC50 reported as ≤ 500 nM

Record for `CC(C)OC1CN(C(=O)c2cnnc(N(Cc3ccc(-c4noc(C(F)(F)F)n4)s3)c3cnccn3)c2)C1` under target or system Recombinant human HDAC6 (Homo sapiens): IC50 reported as ≤ 500 nM

Record for `O=C(c1cnnc(N(Cc2ccc(-c3noc(C(F)(F)F)n3)s2)c2cnccn2)c1)N1CCS(=O)(=O)CC1` under target or system Recombinant human HDAC6 (Homo sapiens): IC50 reported as ≤ 500 nM
